Metric Name: melting point

See these solved cases before continuing.
stdin: Give the reported value of melting point for this record: C[C@H](CCCNCCCN)[C@H]1CC[C@H]2[C@@H]3CCC4C[C@H](O)CC[C@]4(C)[C@H]3CC[C@]12C (some centres unmarked)
stdout: 92 to 94 °C

stdin: Give the reported value of melting point for this record: C[C@H](CCCNCCN)[C@H]1CC[C@H]2[C@@H]3C[C@H](O)C4C[C@H](O)CC[C@]4(C)[C@H]3CC[C@]12C (some centres unmarked)
stdout: 72 to 74 °C

stdin: Give the reported value of melting point for this record: C[C@H](CCCNCCN)[C@H]1CC[C@H]2[C@@H]3CCC4C[C@H](O)CC[C@]4(C)[C@H]3CC[C@]12C (some centres unmarked)
stdout: 107 to 110 °C

stdin: Give the reported value of melting point for this record: C[C@H](CCCNCCN)[C@H]1CC[C@H]2[C@@H]3CCC4C[C@H](O)CC[C@]4(C)[C@H]3C[C@H](O)[C@]12C (some centres unmarked)
stdout: 70 to 72 °C

Attention now shifts to the item below.
stdin: Give the reported value of melting point for this record: C[C@H](CCCNCCCN)[C@H]1CC[C@H]2[C@@H]3CCC4C[C@H](O)CC[C@]4(C)[C@H]3C[C@H](O)[C@]12C (some centres unmarked)
stdout: 64 to 66 °C
